test system: TO-N3 (biotin conjugate); experiment: pull-down binding Z-score (relative to library population); higher = stronger binding; details: RNA library: Library-2
Can you tell me pull-down binding Z-score for the items I'm about to list?

Entry AUAUAAAAUGCAAUUA [hsa-mir-3945] , TO-N3 (biotin conjugate) data, pull-down binding Z-score value: 0.0171

Measured pull-down binding Z-score for this entry GCUUGCUGUUCCUCUCAACAGUAGUCAGGAAGC [hsa-mir-129-1] on TO-N3 (biotin conjugate): -0.219

Per the reported TO-N3 (biotin conjugate) data, CUUGAACAAUGGAACCUAGUAAUAGGUUUCCUAUUCCUUACAUGGAUUUGUCUUCUACAAUUUGCCUAUGCCAACAGGAAUAGGUUUUUGUAUAUAAUUAAG has pull-down binding Z-score of -1.12

Considering GUUGUAGACGGUUGUAAUUCAUCAACUUGUAUGAUGUGUUACAAACGUAAUAGAGC [SHAPE_invivo_SARS-CoV-2_Motif_153] , its pull-down binding Z-score with TO-N3 (biotin conjugate) was recorded as -0.562

###

Would you kindly list pull-down binding Z-score for each of these sequences?
test system: TO-N3-2 (biotin conjugate); experiment: pull-down binding Z-score (relative to library population); higher = stronger binding; conditions: RNA library: Library-2
Answer with the value's number alone.

Given item UAUAGCUACAUCAGUUAUAACUAUAUCAGUUAAA [hsa-mir-5582] , the value recorded as its pull-down binding Z-score is 0.00457

Entry UCUUGAAUUUUUGCCAGUUCAAGA [hsa-mir-5197] ; pull-down binding Z-score = -1.38

# pull-down binding Z-score (sequence: CUGAGCGGCUCCAUCCCCCGGCCUGCUCAU [hsa-mir-6729] ) is 1.81

Lab note: AGAUCACUUUUCUGCACUGGACAGUGAUCU [hsa-mir-3686] gave pull-down binding Z-score of -0.833

// GACAGGGCAGAGGGUUGCGCCCCCUC [hsa-mir-6511b-1_6511b-2_6511a-2_6511a-3_6511a-1_6511a-4] : pull-down binding Z-score value = 1.23

###

tested on: TO-3-N3-2 (biotin conjugate); experiment: pull-down binding Z-score (relative to library population); higher = stronger binding; details: RNA library: Library-2
Record t whenever pull-down binding Z-score is at -0.2 or higher; record f when lower.

stdin: Identify whether the reported pull-down binding Z-score of the following sequence is -0.2 or greater: GAUUAUUACAGAUC [DMSMaPseq_invitro_SARS-CoV-2_Motif_169]
stdout: t

stdin: Would you say GCAGUAAGUCUGAUACUUACCUG [U1snRNP5ss-9] shows pull-down binding Z-score at minimum -0.2?
stdout: t

stdin: Entry AUGCAUUCUGCAU [SHAPE_invivo_SARS-CoV-2_Motif_273] : is its pull-down binding Z-score no less than -0.2?
stdout: f

stdin: Determine whether this sequence has pull-down binding Z-score no lower than -0.2: GCAAGGUUGUUGGUGAUAUGGCUUCCUCUC [hsa-mir-4685]
stdout: t

stdin: Record UUUGCCUCUCUCAGAAAAUAGAGUCAAA [hsa-mir-4694] ; criterion: pull-down binding Z-score no lower than -0.2. Met?
stdout: t

stdin: Quick check, pull-down binding Z-score >= -0.2? UAUAAAGUUUAUUAUGGUAAUGCUUUAGAUCAAGCCAUUUCCAUGUGGGCUCUUAUA
stdout: t

stdin: Determine whether measured pull-down binding Z-score meets or exceeds -0.2 for AUGUGAUGUCACUGAGGAAAUCACAC [hsa-mir-216b]
stdout: f

stdin: Assess whether reported pull-down binding Z-score for UUUACAUGCUACAGUCAAGAUGCGAA [hsa-mir-15b] sits at -0.2 or higher.
stdout: t

stdin: For this sequence, is measured pull-down binding Z-score -0.2 or higher? UCACACUAAAAAGUGGA
stdout: f

stdin: Form field: pull-down binding Z-score at least -0.2? Entry: GAGGGGCUUACUGCCCUGUGGGGCUCUCUGGACCCAGUGCCAUGCUUCUC [hsa-mir-6728]
stdout: f

stdin: Quick check, pull-down binding Z-score >= -0.2? UUAUGUUUCUGAUCCGAAUAUAA [hsa-mir-208b]
stdout: f

stdin: Assess whether reported pull-down binding Z-score for ACACCUGUAAAGAAUUGGUCAGCCUGGGGACUGGUGAUCUCUGCAGCUGU [hsa-mir-4265] sits at -0.2 or higher.
stdout: t

stdin: Has UGUUGUAAAUAAGGGACACUUUGAUGGACAACA [DMSMaPseq_invitro_SARS-CoV-2_Motif_348] a recorded pull-down binding Z-score greater than or equal to -0.2?
stdout: t

stdin: Is reported pull-down binding Z-score greater than or equal to -0.2 here: CCCUCAUAUGGCAGUUGGCGAGGGCCCAGUGAG [hsa-mir-6769a]
stdout: t

stdin: I'd appreciate it if you could say whether CUUGAUUUAAUGUCAUACAAUUAAG [hsa-mir-124-2] has pull-down binding Z-score at least equal to -0.2.
stdout: t

stdin: Is pull-down binding Z-score at least -0.2? Consider AGUUUCUGGAAGUUCUGACAUUCCAGAAACU [hsa-mir-3199-1]
stdout: f

stdin: Given AUGAGGUUUAGAAGAGCUUUUGGUGAAUACAGUCAUGUAGUUGCCUUUAAUACUUUACUAUUCCUUAU , state whether its pull-down binding Z-score is at least -0.2.
stdout: t

stdin: Decide: is the reported value of pull-down binding Z-score for CUGAGAGGUUUACAUUUCUC [hsa-mir-128-1] equal to or greater than -0.2?
stdout: f

stdin: Reported pull-down binding Z-score reaches at least -0.2 for GAAGCCGCUCCCACCUGACCCUCACGGCCUC [hsa-mir-3605] ?
stdout: t

###

system: TO-N3 (biotin conjugate); assay: pull-down binding Z-score (relative to library population); higher = stronger binding; conditions: RNA library: Library-2
Exercise: state measured pull-down binding Z-score for each of the sequences provided.

Kindly note: TO-N3 (biotin conjugate), UCCCAGCCACUCUGGAGG [hsa-mir-4419b] , pull-down binding Z-score value reported: 0.44

# pull-down binding Z-score measured on TO-N3 (biotin conjugate) for item UAUAUGCUUUUUAAAUGGGGCACAGA [hsa-mir-5586] = -0.26

Form field, pull-down binding Z-score with TO-N3 (biotin conjugate), item CCCGUAGGACACCGAGGCUUAUGAAUAGGA [hsa-mir-6081] : 0.345

Query CUGUUAAUGUAGCAUUUGAGCUUUGGGCUAAGCGCAACAUUAAACCAG on TO-N3 (biotin conjugate); pull-down binding Z-score returned: 0.38

Recorded pull-down binding Z-score for CAUUUGUGGCAUGGACCAUUUGUG [hsa-mir-4504] on TO-N3 (biotin conjugate) was -0.959

Case UCAGCACCUGAACGCCAAGGCUGG [hsa-mir-3150a] , TO-N3 (biotin conjugate), pull-down binding Z-score recorded as -0.348

pull-down binding Z-score on TO-N3 (biotin conjugate) for UAUAACAAUACUAGAUGGAAUUUCACAGUAUUCACUGAGACUCAUUGAUGCUAUGAUGUUCACAUCUGAUUUGGCUACUAACAAUCUAGUUGUA is -0.688

The value of pull-down binding Z-score recorded for GCAAUCAGGACUGGGUCAUUC [hsa-mir-6873] when tested on TO-N3 (biotin conjugate) reads 0.572

Entry CUGCCUAUAUGGAAG under TO-N3 (biotin conjugate) had pull-down binding Z-score of -0.773

For the sequence ACCUUUAAUUGAAUUGUGCGUGGAUGAGGCUGGUUCUAAAUCACCCAUUCAGUACAUCGAUAUCGGU [SHAPE_invivo_SARS-CoV-2_Motif_532] , the measured pull-down binding Z-score on TO-N3 (biotin conjugate) was -1.07

###

test system: G-clamp-N3 (biotin conjugate); assay: pull-down binding Z-score (relative to library population); higher = stronger binding; settings: RNA library: Library-1 (pre-miRNA loops + repeats)
For each of the sequences below, state its pull-down binding Z-score.
Give your answer as a number; write no unit.

Reported pull-down binding Z-score of CCAGUGCUGGGCUCAGACCCUGG [hsa-mir-150] : 0.197

Entry GCUGUUGGUCGGGUUGUGACAUUGCCCGCUGUGGAGAUAACUGC [hsa-let-7i] — recorded pull-down binding Z-score = -0.338

Memo: UCAGCCCCAUAUGUAUCUGAAGGCUGA [hsa-mir-5694] , reported pull-down binding Z-score: -0.92

Kindly note the recorded pull-down binding Z-score for AAAUAAGAGGCUAGGAUUGCCUCUUAUUU [hsa-mir-3201] , which is 0.838

Kindly note the recorded pull-down binding Z-score for GAGAGUGCUUUCUGAAUGCAAUGC [hsa-mir-501] , which is 1.7

Note to self: pull-down binding Z-score recorded for UCUUGGUGCCACCAUUGAGAACGCCAGGA [hsa-mir-492] was -1.02

Noted for CUUUCUGUUGUCUAAAAGAAAAGAAAG [hsa-mir-520d] : its pull-down binding Z-score reads 0.0447

Lab note: measured pull-down binding Z-score of CUGCAGAGACGAGGCCUGUAG [hsa-mir-5682] was 0.122

Notebook: CUUUCCUUUUUGUCUGUACUGGGAAG [hsa-mir-373] , pull-down binding Z-score read as 0.709

Value of pull-down binding Z-score reported for the sequence CAGUAUGAAUGAAUUCAUGAUACUG [hsa-mir-3607] is 0.669

What the record says about CUGUCCUGGACUGGGGUCAGACUGUGCCCCGAGGAGAAGCAG [hsa-mir-922] : pull-down binding Z-score is 0.368
